Provenance of the data: patent US20150086555A1

assayed_system: recombinant homotrimeric HA A/Hong Kong/2108/03 H9N2 (Influenza A virus A/HK/2108/2003(H9N2))
protocol: protein microarray, purified IgG, trimeric HA
condition_label: remark: other sources report otherwise
assay_endpoint: Trimeric HA Binding: RLU
Returns: string containing the numeric result and its unit.

binder	result
TCN-530 (5248_H10a) (antibody, V domains shown) VH: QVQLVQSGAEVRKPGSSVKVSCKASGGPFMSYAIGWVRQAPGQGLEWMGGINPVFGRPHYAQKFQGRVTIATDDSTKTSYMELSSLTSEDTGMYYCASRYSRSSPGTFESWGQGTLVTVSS VL: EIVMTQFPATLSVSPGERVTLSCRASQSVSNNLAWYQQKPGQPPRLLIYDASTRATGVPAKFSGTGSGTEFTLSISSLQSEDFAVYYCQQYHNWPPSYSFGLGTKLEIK	169 RLU
TCN-558 (5248_H10b) (antibody, V domains shown) VH: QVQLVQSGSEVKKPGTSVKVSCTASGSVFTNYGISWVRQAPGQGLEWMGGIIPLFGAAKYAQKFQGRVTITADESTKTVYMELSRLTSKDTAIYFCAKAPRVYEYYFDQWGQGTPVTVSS VL: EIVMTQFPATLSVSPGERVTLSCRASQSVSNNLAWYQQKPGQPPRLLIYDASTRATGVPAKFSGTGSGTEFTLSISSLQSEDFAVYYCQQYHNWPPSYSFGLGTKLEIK	257 RLU

Field request: Trimeric HA Binding: RLU | item: TCN-540 (5060_F05) (antibody, V domains shown) VH: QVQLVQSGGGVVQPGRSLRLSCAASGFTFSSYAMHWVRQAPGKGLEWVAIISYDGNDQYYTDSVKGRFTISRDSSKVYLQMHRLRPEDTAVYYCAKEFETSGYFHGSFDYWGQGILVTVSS VL: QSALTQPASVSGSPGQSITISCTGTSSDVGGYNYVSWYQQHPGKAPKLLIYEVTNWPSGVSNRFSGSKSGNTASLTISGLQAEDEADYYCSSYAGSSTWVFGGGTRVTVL
164 RLU
